Reference source for all entries: patent US12528864

- assay_target: T1, human CD96v2 expressed on cells (CHO cells; transiently transfected HEK cells) (human, UniProt P40200-2 22-569)
- T1 construct: whole, on cells; the cell is named under assay; also called CHO-huCD96; hCD96v2
- T1 sequence (looked up): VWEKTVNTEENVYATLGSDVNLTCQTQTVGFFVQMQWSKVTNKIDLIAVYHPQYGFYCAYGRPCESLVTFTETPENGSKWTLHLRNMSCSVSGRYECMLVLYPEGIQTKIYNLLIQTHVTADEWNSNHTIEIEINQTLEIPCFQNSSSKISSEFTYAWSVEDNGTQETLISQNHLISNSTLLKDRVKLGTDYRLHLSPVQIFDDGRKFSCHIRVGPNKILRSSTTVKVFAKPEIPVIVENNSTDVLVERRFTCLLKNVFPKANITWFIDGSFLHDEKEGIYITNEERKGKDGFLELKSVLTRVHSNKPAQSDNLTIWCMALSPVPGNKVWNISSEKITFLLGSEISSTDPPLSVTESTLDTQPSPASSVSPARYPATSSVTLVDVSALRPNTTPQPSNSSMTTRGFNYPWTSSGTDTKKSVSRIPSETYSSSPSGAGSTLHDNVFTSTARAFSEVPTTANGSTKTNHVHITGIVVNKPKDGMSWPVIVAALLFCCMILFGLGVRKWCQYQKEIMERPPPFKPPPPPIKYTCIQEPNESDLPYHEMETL
- experiment_summary: flow cytometry, inhibition of human CD155-Fc-AF647 binding to CHO cells expressing human CD96v2; competitor CD155-Fc
pIC50: −log10 of the molar value.

{"binder": "42Y073-86F08-1 (antibody, V domains shown) VH: QVQLVQSGAEVKKPGSSVKVSCKASGGTFSSYAISWVRQAPGQGLEWMGGIIPIFGTASYAQKFQGRVTITADESTSTAYMELSSLRSEDTAVYYCARGAGYYGDKDPMDVWGQGTTVTVSS VL: DIQLTQSPSSLSASVGDRVTITCRASQSISSYLNWYQQKPGKAPKLLIYAASSLQSGVPSRFSGSGSGTDFTLTISSLQPEDFATYYCQQVLHTITFGGGTKVEIK", "pIC50": 9.48}
{"binder": "42Y073-1A01-103 (antibody, V domains shown, Fully human antibody) VH: QVQLVQSGAEVKKPGASVKVSCKASGYTFTAYQMHWVRQAPGQGLEWMGIINPAGGWTSYAQKFQGRVTMTRDTSTSTVYMELSSLRSEDTAVYYCARETAYYTTKGNWFDPWGQGTLVTVSS VL: DIQMTQSPSSLSASVGDRVTITCRASQSISSYLNWYQQKPGKAPKLLIYAASSLQSGVPSRFSGSGSGTDFTLTISSLQPEDFATYYCQQSLYPPRTFGGGTKVEIK", "pIC50": 10.52}
{"binder": "42Y073-86F04-3 (antibody, V domains shown, Fully human antibody) VH: QVQLVQSGAEVKKPGSSVKVSCKASGGTFSYNAISWVRQAPGQGLEWMGGIIPIMGTARYAQKFQGRVTITADESTSTAYMELSSLRSEDTAVYYCARLLGESGMDVWGQGTTVTVSS VL: DIQMTQSPSSLSASVGDRVTITCRASQSISSYLNWYQQKPGKAPKLLIYAASSLQSGVPSRFSGSGSGTDFTLTISSLQPEDFATYYCQQPYFSPPTFGGGTKVEIK", "pIC50": 9.51}
{"binder": "42Y073-86F08-22 (antibody, V domains shown, Fully human antibody) VH: QVQLVQSGAEVKKPGASVKVSCKASGYTFDSYAMHWVRQAPGQGLEWMGGIIPIFGTAWYAQKFQGRVTITADESTSTAYMELSSLRSEDTAVYYCARGAGYYGDKDPMDVWGQGTTVTVSS VL: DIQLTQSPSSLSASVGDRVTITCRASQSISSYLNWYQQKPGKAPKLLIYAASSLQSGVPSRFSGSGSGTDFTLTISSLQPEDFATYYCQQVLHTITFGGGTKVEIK", "pIC50": 9.39}
{"binder": "42Y073-86F04-4 (antibody, V domains shown, Fully human antibody) VH: QVQLVQSGAEVKKPGSSVKVSCKASGGTFESEAISWVRQAPGQGLEWMGGIIPIFGRARYAQKFQGRVTITADESTSTAYMELSSLRSEDTAVYYCARLLGESGMDVWGQGTTVTVSS VL: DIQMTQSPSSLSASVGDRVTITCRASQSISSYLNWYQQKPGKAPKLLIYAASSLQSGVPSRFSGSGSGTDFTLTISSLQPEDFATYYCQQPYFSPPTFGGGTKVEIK", "pIC50": 9.74}
{"binder": "42Y073-2B04-46 (antibody, V domains shown, Fully human antibody; also called 42Y073-2804-46) VH: QVQLQQWGAGLLKPSETLSLTCAVYGGSFRRYYWSWIRQPPGKGLEWIGEIDGWGSTNYNPSLKSRVTISVDTSKNQFSLKLSSVTAADTAVYYCARGGSVDFWSGSDYYYYMDVWGKGATVTVSS VL: EIVLTQSPATLSLSPGERATLSCRASQSVSSYLAWYQQKPGQAPRLLIYDASKRATGIPARFSGSGSGTDFTLTISSLEPEDFAVYYCQQLDNWPITFGGGTKVEIK", "pIC50": 9.40}
{"binder": "42Y073-86F08-3 (antibody, V domains shown, Fully human antibody) VH: QVQLVQSGAEVKKPGSSVKVSCKASGGTFVNYAISWVRQAPGQGLEWMGGIIPALGTANYAQKFQGRVTITADESTSTAYMELSSLRSEDTAVYYCARGAGYYGDKDPMDVWGQGTTVTVSS VL: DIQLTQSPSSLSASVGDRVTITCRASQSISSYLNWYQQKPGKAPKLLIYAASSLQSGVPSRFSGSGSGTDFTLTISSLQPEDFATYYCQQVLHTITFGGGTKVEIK", "pIC50": 9.55}
{"binder": "42Y073-86F04-6 (antibody, V domains shown, Fully human antibody) VH: QVQLVQSGAEVKKPGSSVKVSCKASGGTFSGHAISWVRQAPGQGLEWMGGIIPIFGRARYAQKFQGRVTITADESTSTAYMELSSLRSEDTAVYYCARLLGESGMDVWGQGTTVTVSS VL: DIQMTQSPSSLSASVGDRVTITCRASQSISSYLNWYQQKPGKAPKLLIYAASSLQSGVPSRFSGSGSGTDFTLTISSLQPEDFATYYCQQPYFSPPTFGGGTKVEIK", "pIC50": 9.60}
{"binder": "42Y073-1A01-126 (antibody, V domains shown, Fully human antibody) VH: QVQLVQSGAEVKKPGASVKVSCKASGYTFTRYNMHWVRQAPGQGLEWMGWINPAGGSTSYAQKFQGRVTMTRDTSTSTVYMELSSLRSEDTAVYYCARETAYYTTKGNWFDPWGQGTLVTVSA VL: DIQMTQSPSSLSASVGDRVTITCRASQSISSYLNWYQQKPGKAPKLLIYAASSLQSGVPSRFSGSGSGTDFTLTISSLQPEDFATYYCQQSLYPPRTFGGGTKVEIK", "pIC50": 10.00}
{"binder": "42Y073-86F04-33 (antibody, V domains shown, Fully human antibody) VH: QVQLVQSGAEVKKPGSSVKVSCKASGGTFSSYAISWVRQAPGQGLEWMGGILPIFGRANYAQKFQGRVTITADESTSTAYMELSSLRSEDTAVYYCARLLGESGMDVWGQGTTVTVSS VL: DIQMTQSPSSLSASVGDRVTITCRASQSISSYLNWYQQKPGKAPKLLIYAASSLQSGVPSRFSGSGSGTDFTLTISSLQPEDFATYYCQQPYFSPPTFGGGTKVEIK", "pIC50": 9.15}
{"binder": "42Y073-86F08-47 (antibody, V domains shown, Fully human antibody) VH: QVQLVQSGAEVKKPGSSVKVSCKASGGTFSQYAIHWVRQAPGQGLEWMGVIIPIFGKANYAQKFQGRVTITADESTSTAYMELSSLRSEDTAVYYCARGAGYYGDKDPMDVWGQGTTVTVSS VL: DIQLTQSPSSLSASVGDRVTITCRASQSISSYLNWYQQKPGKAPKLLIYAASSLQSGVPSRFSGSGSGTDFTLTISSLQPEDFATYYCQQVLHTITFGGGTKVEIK", "pIC50": 9.77}
